# system: HCV Core 134-171-TT peptide (ALRZ-9 peptide) (HCV-1)
# measurement_protocol: SPR, captured mAb;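 further: Anti-HCV Core mAbs from hybridoma supernatants held on a rabbit anti-mouse IgG CM5 surface, peptide flowed over 3 min then 4 min dissociation, duplicate concentrations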

{"columns": ["binder", "koff (s⁻¹)"],
 "data": [
  ["HCV 208A-830 (antibody, V domains shown) VH: EVRLQQPGPEVEKPGASVKISCKTSGYTFTEYAIHWVKQSHGESLEWIGGINPSNGDPIYNQIFKDKATLTVDRSSNTAYMGLRSLTVGDSGVYFCVRRQLDYFDFWGQGASLTVSS VL: DIVLTQSPASLAVSLGQRATISCRSSQSVSTSRYSYLHWYQQKPGQPPKLLIKYASNLESGVPARFSGSGSGTDFTLNIHPVGEEDPATYYCQHSWEFPFTFGSGTKLEIKR", 0.00054],
  ["HCV 208B-471 (antibody, V domains shown) VH: QGQLQQSGPVLVKPGASEILYCKTSGFTFSSTYISWLKQKPGQSLEWIAWIYAGTGATNYNQKFTGKAQLTVDASSNTAYMHFSGLTPEDSAIYYCAISGAGVYWGQGTLVTVSA VL: DVVMTQTPLSLPVSLGDQASISCRSSQSLLHSNGNTYLEWYLQKPGQSPNLLIYNVSNRFSGVPDRFSGSGSGTDFALKISRVGAEDLGVYYCFQGSHVPLTFGAGTKLELKR", "5.5e-05"],
  ["HCV 208A-293 (antibody, V domains shown) VH: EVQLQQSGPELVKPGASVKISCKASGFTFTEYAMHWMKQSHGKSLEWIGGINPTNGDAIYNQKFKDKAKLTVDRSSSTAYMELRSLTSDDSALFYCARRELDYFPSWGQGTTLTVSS VL: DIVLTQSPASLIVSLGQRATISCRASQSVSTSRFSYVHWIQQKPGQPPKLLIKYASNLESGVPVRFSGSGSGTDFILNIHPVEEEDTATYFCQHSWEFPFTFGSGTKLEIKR", 0.00023],
  ["HCV 208B-395 (antibody, V domains shown) VH: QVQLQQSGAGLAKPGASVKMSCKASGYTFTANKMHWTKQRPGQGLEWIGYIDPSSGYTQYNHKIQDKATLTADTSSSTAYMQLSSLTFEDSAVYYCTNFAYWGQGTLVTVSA VL: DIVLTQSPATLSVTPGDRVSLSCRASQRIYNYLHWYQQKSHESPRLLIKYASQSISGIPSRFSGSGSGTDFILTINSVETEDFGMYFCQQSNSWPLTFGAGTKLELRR", 0.00047]
]}
